# Protocol Text: Absolute oral bioavailability after administration to rats at a dose of 7.6 mg/kg orally
# Assay type: ADME, organism-based
# Protocol Conditions: rat, in vivo

{"Compound": "CC(C(=O)O)c1ccc(-c2ccccc2)c(F)c1 (stereo unspecified)", "Units Of Measure": "%", "bioavailability": 78.3}

* * *

# System: Amyloid-beta precursor protein (Homo sapiens)
# Sequence (P05067 18-770 limits assumed): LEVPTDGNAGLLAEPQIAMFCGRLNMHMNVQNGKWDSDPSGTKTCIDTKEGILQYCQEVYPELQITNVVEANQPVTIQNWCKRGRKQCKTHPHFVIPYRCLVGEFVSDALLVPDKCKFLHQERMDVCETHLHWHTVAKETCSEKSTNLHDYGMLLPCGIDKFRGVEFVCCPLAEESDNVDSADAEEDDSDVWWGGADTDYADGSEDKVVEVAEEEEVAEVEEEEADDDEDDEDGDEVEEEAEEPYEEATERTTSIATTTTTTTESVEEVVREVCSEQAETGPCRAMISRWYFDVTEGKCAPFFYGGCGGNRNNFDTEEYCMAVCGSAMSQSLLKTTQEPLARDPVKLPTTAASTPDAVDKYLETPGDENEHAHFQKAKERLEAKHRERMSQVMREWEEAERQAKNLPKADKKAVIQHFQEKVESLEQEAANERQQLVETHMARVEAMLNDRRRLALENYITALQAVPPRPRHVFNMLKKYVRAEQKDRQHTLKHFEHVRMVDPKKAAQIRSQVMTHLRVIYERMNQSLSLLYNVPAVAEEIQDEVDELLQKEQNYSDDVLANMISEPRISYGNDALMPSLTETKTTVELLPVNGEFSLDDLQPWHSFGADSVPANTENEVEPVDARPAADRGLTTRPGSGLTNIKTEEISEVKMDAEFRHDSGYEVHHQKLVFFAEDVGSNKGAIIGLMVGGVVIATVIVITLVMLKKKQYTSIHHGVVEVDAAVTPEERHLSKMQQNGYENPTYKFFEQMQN
# Protocol Text: Inhibitory concentration against beta-amyloid-42 (Abeta42) secretion was evaluated in human neuroglioma cells (H4-APP695NL)
# Type: functional, cell-based
Test Readout: log10 IC50 (log10 of the value in µM)

{"Molecule": "O=C(O)C1(c2ccc(-c3ccc(-c4ccc(O)cc4)cc3)c(F)c2)CC1", "System": "Amyloid-beta precursor protein (Homo sapiens)", "log10 IC50": 1.50}
{"Molecule": "O=C(O)C1(c2ccc(-c3ccc(-c4ccc(F)cc4)c(F)c3)c(F)c2)CC1", "System": "Amyloid-beta precursor protein (Homo sapiens)", "log10 IC50": 1.76}
{"Molecule": "O=C(O)C1(c2ccc(-c3ccc(Cl)c(Cl)c3)c(F)c2)CC1", "System": "Amyloid-beta precursor protein (Homo sapiens)", "log10 IC50": 1.61}
{"Molecule": "COc1ccc(-c2ccc(C(C)C(=O)O)cc2F)cc1 (stereo not drawn)", "System": "Amyloid-beta precursor protein (Homo sapiens)", "log10 IC50": 1.83}
{"Molecule": "CC(C(=O)O)c1ccc(-c2ccc(C(F)(F)F)cc2)c(F)c1 (stereo not drawn)", "System": "Amyloid-beta precursor protein (Homo sapiens)", "log10 IC50": 2.11}
{"Molecule": "C[C@@H](C(=O)O)c1ccc(-c2ccccc2)c(F)c1", "System": "Amyloid-beta precursor protein (Homo sapiens)", "log10 IC50": 2.45}
{"Molecule": "CC1(C)CC(Oc2ccc(-c3ccc(C4(C(=O)O)CC4)cc3F)cc2)CC(C)(C)C1", "System": "Amyloid-beta precursor protein (Homo sapiens)", "log10 IC50": 1.04}
{"Molecule": "CC(C)(C(=O)O)c1ccc(-c2ccc(C(F)(F)F)cc2)c(F)c1", "System": "Amyloid-beta precursor protein (Homo sapiens)", "log10 IC50": 1.85}
{"Molecule": "CC(C(=O)O)c1ccc(-c2ccc(OC3CCCCC3)cc2)c(F)c1 (stereo not drawn)", "System": "Amyloid-beta precursor protein (Homo sapiens)", "log10 IC50": 1.61}
{"Molecule": "CC(C(N)=O)c1ccc(-c2cc(Cl)cc(Cl)c2)c(F)c1 (stereo not drawn)", "System": "Amyloid-beta precursor protein (Homo sapiens)", "log10 IC50": 1.81}
{"Molecule": "CC(C(=O)O)c1ccc(-c2ccccc2)c(F)c1 (stereo not drawn)", "System": "Amyloid-beta precursor protein (Homo sapiens)", "log10 IC50": 2.48}
{"Molecule": "O=C(O)C1(c2ccc(-c3ccc(-c4ccc(O)cc4)c(F)c3)c(F)c2)CC1", "System": "Amyloid-beta precursor protein (Homo sapiens)", "log10 IC50": 1.53}
{"Molecule": "O=C(O)C1(c2ccc(-c3ccc(C(F)(F)F)cc3)c(F)c2)CC1", "System": "Amyloid-beta precursor protein (Homo sapiens)", "log10 IC50": 2.05}
{"Molecule": "O=C(O)C1(c2ccc(-c3ccc(OC4CCC(C(F)(F)F)CC4)cc3)c(F)c2)CC1 (stereo not drawn)", "System": "Amyloid-beta precursor protein (Homo sapiens)", "log10 IC50": 1.30}
{"Molecule": "CC(C(=O)O)c1ccc(-c2ccc(-c3ccc(O)cc3)cc2)c(F)c1 (stereo not drawn)", "System": "Amyloid-beta precursor protein (Homo sapiens)", "log10 IC50": 1.54}
{"Molecule": "CC(C(=O)O)c1ccc(-c2ccc3c(c2)OCO3)c(F)c1 (stereo not drawn)", "System": "Amyloid-beta precursor protein (Homo sapiens)", "log10 IC50": 2.32}
{"Molecule": "O=C(O)C1(c2ccc(-c3csc4ccccc34)c(F)c2)CC1", "System": "Amyloid-beta precursor protein (Homo sapiens)", "log10 IC50": 1.98}
{"Molecule": "CC(C(=O)O)c1ccc(-c2ccc(C3CCCCC3)cc2)c(F)c1 (stereo not drawn)", "System": "Amyloid-beta precursor protein (Homo sapiens)", "log10 IC50": 1.32}
{"Molecule": "CC(c1ccc(-c2ccc(C(F)(F)F)cc2)c(F)c1)c1nnn[nH]1 (stereo not drawn)", "System": "Amyloid-beta precursor protein (Homo sapiens)", "log10 IC50": 2.06}
{"Molecule": "CC(C(=O)O)c1ccc(-c2ccc(Cl)c(Cl)c2)c(F)c1 (stereo not drawn)", "System": "Amyloid-beta precursor protein (Homo sapiens)", "log10 IC50": 1.88}
{"Molecule": "CC1(C)CCC(c2ccc(-c3ccc(C4(C(=O)O)CC4)cc3F)cc2)CC1", "System": "Amyloid-beta precursor protein (Homo sapiens)", "log10 IC50": 1.66}
{"Molecule": "CC(C(=O)O)c1ccc(-c2cc(Cl)cc(Cl)c2)c(F)c1 (stereo not drawn)", "System": "Amyloid-beta precursor protein (Homo sapiens)", "log10 IC50": 1.89}
{"Molecule": "CC(C(=O)O)c1ccc(-c2csc3ccccc23)c(F)c1 (stereo not drawn)", "System": "Amyloid-beta precursor protein (Homo sapiens)", "log10 IC50": 1.92}
